# Experimental target: UniProt:Q02769
# Sequence (Q02769 whole entry): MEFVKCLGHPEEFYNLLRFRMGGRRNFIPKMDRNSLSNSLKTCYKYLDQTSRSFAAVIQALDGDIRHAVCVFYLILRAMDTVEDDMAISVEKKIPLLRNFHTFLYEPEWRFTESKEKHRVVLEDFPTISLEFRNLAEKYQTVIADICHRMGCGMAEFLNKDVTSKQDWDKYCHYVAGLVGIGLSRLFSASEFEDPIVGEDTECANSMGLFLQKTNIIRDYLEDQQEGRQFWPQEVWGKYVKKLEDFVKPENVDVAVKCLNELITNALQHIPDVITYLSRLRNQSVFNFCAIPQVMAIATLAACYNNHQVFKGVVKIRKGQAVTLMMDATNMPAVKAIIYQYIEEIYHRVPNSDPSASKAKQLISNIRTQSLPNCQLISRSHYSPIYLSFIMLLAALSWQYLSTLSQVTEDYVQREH
Quantity measured: IC50

C=C(CC[C@]12O[C@H](C(=O)O)[C@@](O)(C(=O)OC)[C@](C(=O)OC)(O1)[C@H](OC(=O)/C=C/[C@@H](C)C[C@@H](C)CC)[C@H]2O)[C@@H](OC(C)=O)[C@H](C)Cc1ccccc1	> 0.5 µM
C=C(CC[C@]12O[C@H](C(=O)OC)[C@@](O)(C(=O)O)[C@](C(=O)O)(O1)[C@H](O)[C@H]2O)[C@@H](OC(C)=O)[C@H](C)Cc1ccccc1	0.22 µM

// below: IC50 requested for another molecule
Form: molecule = `C=C(CC[C@]12O[C@H](C(=O)O)[C@@](O)(C(=O)O)[C@](C(=O)OC)(O1)[C@H](OC(=O)/C=C/[C@@H](C)C[C@@H](C)CC)[C@H]2O)[C@@H](OC(C)=O)[C@H](C)Cc1ccccc1` ; IC50 = > 0.5 µM
